target: Fyn (UniProt P06241); assay: phosphorylation enrichment, bacterial display (enrichment ratio); higher = better substrate or ligand; peptides without Tyr show the background;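 further: 11-residue human phosphosite peptides and single-mutation variants displayed on the E. coli surface, counted by deep sequencing, each peptide's frequency after selection divided by its frequency in the unselected input library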;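 further: frequency after pTyr selection over input frequency; kinase dosed for 20-30% of maximal phosphorylation in three min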
Sequence (P06241 whole entry, looked up): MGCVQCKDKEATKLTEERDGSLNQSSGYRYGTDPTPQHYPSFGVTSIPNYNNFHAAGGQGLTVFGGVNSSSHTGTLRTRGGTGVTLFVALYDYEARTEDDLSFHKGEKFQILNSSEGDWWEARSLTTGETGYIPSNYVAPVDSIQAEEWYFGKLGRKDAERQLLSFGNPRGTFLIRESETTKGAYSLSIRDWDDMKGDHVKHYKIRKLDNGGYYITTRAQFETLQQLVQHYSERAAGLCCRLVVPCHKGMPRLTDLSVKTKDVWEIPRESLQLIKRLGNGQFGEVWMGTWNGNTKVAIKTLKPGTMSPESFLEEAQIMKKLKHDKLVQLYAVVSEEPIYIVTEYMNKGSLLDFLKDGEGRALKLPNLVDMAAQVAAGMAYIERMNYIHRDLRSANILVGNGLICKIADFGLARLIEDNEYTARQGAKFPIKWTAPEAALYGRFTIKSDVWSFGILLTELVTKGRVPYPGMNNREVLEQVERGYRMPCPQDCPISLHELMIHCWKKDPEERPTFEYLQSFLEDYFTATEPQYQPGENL
REPORTED_ENDPOINT: phosphorylation enrichment
# print the numeric value only

Exam item: Sample LHVKMYNFLRS [ADGRG7_Y760_R756H] — what was its phosphorylation enrichment?
Marked response: 0.615

Exam item: Dear colleague, I am looking for the recorded phosphorylation enrichment of the following sequence: DVCKKYAEAKD [ALB_Y343_N342K]
Marked response: 0.639

Exam item: Could you share which phosphorylation enrichment value was measured for RCFVFYFSFLL [PTEN_Y177_R173C_YF] ?
Marked response: 0.355

Exam item: Quick one: phosphorylation enrichment for DLVRPYVHKIL [SF3B1_Y570] ?
Marked response: 0.703

Exam item: Which value of phosphorylation enrichment has been reported for ASTDYYKRGDF [PDHA1_Y243] in the records?
Marked response: 0.368

Exam item: # phosphorylation enrichment lookup, item `TENAGYYFRVS`
Marked response: 0.407

Exam item: Which value of phosphorylation enrichment has been reported for YPKARYRWLVL [APTX_Y214_H215R] in the records?
Marked response: 0.464

Exam item: Field request: phosphorylation enrichment | item: GSIQQYIFKQE [PRG4_Y1271_YF]
Marked response: 0.429

Exam item: Give the measured phosphorylation enrichment of LRNIDYFRLDG [ATRX_Y2083_YF] .
Marked response: 2.77

Exam item: Any idea what its phosphorylation enrichment is? The sequence is KLKRSYSSPDI [USP8_Y717]
Marked response: 0.322

Exam item: May I ask what phosphorylation enrichment has been recorded for CLAKMYYSAVD [CP_Y539] ?
Marked response: 0.572

====

biological target: Hck (UniProt P08631); assay: phosphorylation enrichment, bacterial display (enrichment ratio); higher = better substrate or ligand; peptides without Tyr show the background
Sequence (P08631 whole entry, looked up): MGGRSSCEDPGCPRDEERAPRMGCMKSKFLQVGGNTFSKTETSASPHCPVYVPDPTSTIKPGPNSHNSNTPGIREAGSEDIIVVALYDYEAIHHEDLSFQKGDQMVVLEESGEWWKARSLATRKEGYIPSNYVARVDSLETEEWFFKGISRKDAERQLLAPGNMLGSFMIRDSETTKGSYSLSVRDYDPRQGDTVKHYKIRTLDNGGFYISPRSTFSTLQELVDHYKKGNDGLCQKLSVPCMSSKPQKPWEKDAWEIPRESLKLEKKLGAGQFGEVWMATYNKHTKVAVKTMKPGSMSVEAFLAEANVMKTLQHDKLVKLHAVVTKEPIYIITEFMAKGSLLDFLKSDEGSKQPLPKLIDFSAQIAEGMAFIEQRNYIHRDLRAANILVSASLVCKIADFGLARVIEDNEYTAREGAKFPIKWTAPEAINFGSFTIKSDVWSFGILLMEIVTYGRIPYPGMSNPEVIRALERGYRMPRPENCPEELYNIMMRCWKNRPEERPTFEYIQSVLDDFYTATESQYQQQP
REPORTED_ENDPOINT: phosphorylation enrichment
Reply: number alone, nothing else.

These recorded examples may help you get a feel for the data.
NPQKSYFICLY [WAS_Y83_R86C]; 0.438
RPSELYYSKIS [SMG1_Y2253_G2258S]; 11.1
SLNAVYPRAGR [OAS3_Y376_S381R]; 0.405

Shift focus to the following entry.
Exam item: # returns recorded phosphorylation enrichment (system: Hck (UniProt P08631)) for SILAVYSKDNF [PANK2_Y400_YF]
Marked response: 0.872

====

As shown below, each of these sequences has a reported phosphorylation enrichment value.
target: MERTK (UniProt Q12866); test: phosphorylation enrichment, bacterial display (enrichment ratio); higher = better substrate or ligand; peptides without Tyr show the background
Sequence (Q12866 whole entry, looked up): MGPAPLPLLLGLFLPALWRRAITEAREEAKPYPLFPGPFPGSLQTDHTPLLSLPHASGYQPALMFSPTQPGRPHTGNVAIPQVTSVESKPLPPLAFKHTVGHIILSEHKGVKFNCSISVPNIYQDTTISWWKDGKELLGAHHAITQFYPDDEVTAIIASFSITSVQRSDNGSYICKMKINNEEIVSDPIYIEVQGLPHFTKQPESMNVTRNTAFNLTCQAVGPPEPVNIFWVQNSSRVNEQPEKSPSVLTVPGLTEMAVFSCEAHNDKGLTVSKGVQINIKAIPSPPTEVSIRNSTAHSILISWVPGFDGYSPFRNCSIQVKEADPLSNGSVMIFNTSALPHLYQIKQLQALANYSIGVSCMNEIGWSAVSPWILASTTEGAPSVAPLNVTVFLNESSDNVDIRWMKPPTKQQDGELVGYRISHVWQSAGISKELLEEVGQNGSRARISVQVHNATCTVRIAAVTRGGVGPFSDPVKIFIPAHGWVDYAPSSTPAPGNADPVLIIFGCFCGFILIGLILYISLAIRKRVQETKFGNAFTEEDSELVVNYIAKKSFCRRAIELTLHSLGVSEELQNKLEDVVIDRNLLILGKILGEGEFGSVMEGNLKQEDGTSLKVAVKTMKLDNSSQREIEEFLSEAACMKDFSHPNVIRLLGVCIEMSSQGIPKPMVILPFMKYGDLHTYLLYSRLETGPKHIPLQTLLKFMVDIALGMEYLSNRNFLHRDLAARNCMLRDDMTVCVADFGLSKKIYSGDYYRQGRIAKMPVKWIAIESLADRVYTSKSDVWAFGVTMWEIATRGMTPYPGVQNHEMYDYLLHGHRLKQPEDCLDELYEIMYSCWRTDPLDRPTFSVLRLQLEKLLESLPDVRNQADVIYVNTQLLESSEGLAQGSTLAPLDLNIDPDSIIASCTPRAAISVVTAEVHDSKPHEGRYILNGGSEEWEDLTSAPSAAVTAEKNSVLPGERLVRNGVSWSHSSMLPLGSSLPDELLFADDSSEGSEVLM
// return just the number, without any unit appended

Exam item: May I ask what phosphorylation enrichment has been recorded for RLLRGYDQYAY [HLA-B_Y137_H137Y] ?
Marked response: 0.596

Exam item: Which phosphorylation enrichment is listed for IIWDSYTTNKM [GNB4_Y85] ?
Marked response: 0.401

Exam item: Which phosphorylation enrichment is listed for KYWREYILSLE [GPC3_Y299] ?
Marked response: 0.39

====

Documented phosphorylation enrichment across a set of sequences
molecular target: MERTK (UniProt Q12866); experiment: phosphorylation enrichment, bacterial display (enrichment ratio); higher = better substrate or ligand; peptides without Tyr show the background
Reply with the value as a number alone.

The cases that follow already have their phosphorylation enrichment on record.
RDLTHYLMKIL [ACTG1_Y188_D187H]; 0.583
SGPRRYNIAAL [TTR_Y125_T126N]; 0.411
DSLASYLDKVR [KRT10_Y160_R156S]; 0.46

Exam item: Tell me the measured phosphorylation enrichment of DAANNYARGHY [TUBA3E_Y103_S101N] , please.
Marked response: 0.528
